Below, each entry is listed alongside its reported Abs.
Assay: Spectroscopic measurements (absorption, emission, quantum yield, extinction coefficient)
Assay type: physicochemical
Conditions: BDNCA library, absorption
Number in nm, nothing else.

Input CC1=CC(/C=C/c2cccc(Oc3ccc(Cl)c(Cl)c3)c2)=[N+]2C1=C(c1ccc(NC(=O)CCl)cc1)c1cccn1[B-]2(F)F . Output Abs: 556

Documented Abs of CCc1ccc(/C=C/C2=[N+]3C(=C(c4ccc(NC(=O)CCl)cc4)c4cccn4[B-]3(F)F)C(C)=C2)cc1[N+](=O)[O-] : 556

// Abs lookup, compound = CC1=CC(/C=C/c2ccc(N(C)CCC#N)cc2)=[N+]2C1=C(c1ccc(NC(=O)CCl)cc1)c1cccn1[B-]2(F)F , result: 605

compound CC1=CC(/C=C/c2cc(Br)ccc2O)=[N+]2C1=C(c1ccc(NC(=O)CCl)cc1)c1cccn1[B-]2(F)F , Abs observed: 564

// Abs lookup, compound = CC1=CC(/C=C/c2ccc(OC(F)(F)F)cc2)=[N+]2C1=C(c1ccc(NC(=O)CCl)cc1)c1cccn1[B-]2(F)F , result: 553

Looking up COc1cc(Cl)c(/C=C/C2=[N+]3C(=C(c4ccc(NC(=O)CCl)cc4)c4cccn4[B-]3(F)F)C(C)=C2)c(Cl)c1O , I found its Abs recorded as 559

###

Experiment: Spectroscopic measurements (absorption, emission, quantum yield, extinction coefficient)
Type: physicochemical
Conditions: BDNCA library, extinction coefficient; in M-1 cm-1 (unit assumed)
The following compounds are listed with their measured ε values.

input.smiles: COc1cc2ccccc2c(/C=C/C2=[N+]3C(=C(c4ccc(NC(=O)CCl)cc4)c4cccn4[B-]3(F)F)C(C)=C2)c1OC
ε: 85,950
//
input.smiles: CC1=CC(/C=C/c2ccc(C(C)(C)C)cc2)=[N+]2C1=C(c1ccc(NC(=O)CCl)cc1)c1cccn1[B-]2(F)F
ε: 73,867
//
input.smiles: C=CCOc1ccc(/C=C/C2=[N+]3C(=C(c4ccc(NC(=O)CCl)cc4)c4cccn4[B-]3(F)F)C(C)=C2)cc1
ε: 44,211
//
input.smiles: CC1=CC(/C=C/c2c(C)cccc2Cl)=[N+]2C1=C(c1ccc(NC(=O)CCl)cc1)c1cccn1[B-]2(F)F
ε: 44,211

Reported ε ( CC1=CC(/C=C/c2ccc3ccc4cccc5ccc2c3c45)=[N+]2C1=C(c1ccc(NC(=O)CCl)cc1)c1cccn1[B-]2(F)F ) = 28,558

Consider COc1cc(Cl)cc(/C=C/C2=[N+]3C(=C(c4ccc(NC(=O)CCl)cc4)c4cccn4[B-]3(F)F)C(C)=C2)c1OC . Its measured ε is 52,723

Quick note, ε for CCCOc1ccc(/C=C/c2cc(C)c3n2[B-](F)(F)[N+]2=CC=CC2=C3c2ccc(NC(=O)CCl)cc2)cc1 landed at 27,185

// CC1=CC(/C=C/c2c(Br)ccc3c2OCO3)=[N+]2C1=C(c1ccc(NC(=O)CCl)cc1)c1cccn1[B-]2(F)F : ε value = 68,924

Recorded ε (compound Cc1cc(/C=C/c2ccc(Oc3ccc(Cl)cc3)cc2)n2c1C(c1ccc(NC(=O)CCl)cc1)=C1C=CC=[N+]1[B-]2(F)F ): 65,080

CC1=CC(/C=C/c2ccc3ccccc3c2)=[N+]2C1=C(c1ccc(NC(=O)CCl)cc1)c1cccn1[B-]2(F)F yielded ε of 43,387

For CC(=O)OCCN(CCOC(C)=O)c1ccc(/C=C/C2=[N+]3C(=C(c4ccc(NC(=O)CCl)cc4)c4cccn4[B-]3(F)F)C(C)=C2)cc1 the compound record lists ε as 42,288

Measured ε, CC1=CC(/C=C/c2ccc(Cl)c(Cl)c2)=[N+]2C1=C(c1ccc(NC(=O)CCl)cc1)c1cccn1[B-]2(F)F : 37,620

For record CC1=CC(/C=C/c2ccc(C)o2)=[N+]2C1=C(c1ccc(NC(=O)CCl)cc1)c1cccn1[B-]2(F)F the listed ε is 37,346

###

Assay: Spectroscopic measurements (absorption, emission, quantum yield, extinction coefficient)
Assay type: physicochemical
Details: extinction coefficient, BDNCA library; in M-1 cm-1 (unit assumed)
// ε lookup, one value per entry

compound: CC1=CC(/C=C/c2ncc[nH]2)=[N+]2C1=C(c1ccc(NC(=O)CCl)cc1)c1cccn1[B-]2(F)F [BDNCA-353]
metric: ε
measurement: 15,652
--
compound: Cc1cc(/C=C/c2ccc(N(C)C)c3ccccc23)n2c1C(c1ccc(NC(=O)CCl)cc1)=C1C=CC=[N+]1[B-]2(F)F [BDNCA-377]
metric: ε
measurement: 58,215
--
compound: CC1=CC(/C=C/C2CCCCC2)=[N+]2C1=C(c1ccc(NC(=O)CCl)cc1)c1cccn1[B-]2(F)F [BDNCA-414]
metric: ε
measurement: 49,428
--
compound: CC1=CC(/C=C/c2ccc(C)cc2C)=[N+]2C1=C(c1ccc(NC(=O)CCl)cc1)c1cccn1[B-]2(F)F [BDNCA-370]
metric: ε
measurement: 34,050
--
compound: CCOc1c(/C=C/C2=[N+]3C(=C(c4ccc(NC(=O)CCl)cc4)c4cccn4[B-]3(F)F)C(C)=C2)cccc1OC [BDNCA-320]
metric: ε
measurement: 59,588

The compound listed as Cc1cc(/C=C/c2ccc(-c3ccccc3)o2)n2c1C(c1ccc(NC(=O)CCl)cc1)=C1C=CC=[N+]1[B-]2(F)F [BDNCA-319] shows ε equal to 54,096

Form: compound = CC1=CC(/C=C/c2ccccc2Oc2ccc(F)cc2)=[N+]2C1=C(c1ccc(NC(=O)CCl)cc1)c1cccn1[B-]2(F)F [BDNCA-341] ; ε = 58,764

Item: Cc1cc(/C=C/c2cc(F)ccc2O)n2c1C(c1ccc(NC(=O)CCl)cc1)=C1C=CC=[N+]1[B-]2(F)F [BDNCA-318] | ε: 18,398

What the record says about COc1cc(O)c(/C=C/C2=[N+]3C(=C(c4ccc(NC(=O)CCl)cc4)c4cccn4[B-]3(F)F)C(C)=C2)c(OC)c1 [BDNCA-366] : ε is 38,444

The reported ε of the compound Cc1cc(/C=C/c2ccc(OCc3ccc(F)cc3)cc2)n2c1C(c1ccc(NC(=O)CCl)cc1)=C1C=CC=[N+]1[B-]2(F)F [BDNCA-378] was 92,540

###

Assay: Spectroscopic measurements (absorption, emission, quantum yield, extinction coefficient)
Assay type: physicochemical
Settings: fluorescence emission maximum, BDNCA library
metric: Flu
// no unit, no text: just the number

compound: CC1=CC(/C=C/c2cc3ccccc3o2)=[N+]2C1=C(c1ccc(NC(=O)CCl)cc1)c1cccn1[B-]2(F)F [BDNCA-368]
Flu: 601
//
compound: CC1=CC(/C=C/c2c3ccccc3c(C)c3ccccc23)=[N+]2C1=C(c1ccc(NC(=O)CCl)cc1)c1cccn1[B-]2(F)F [BDNCA-340]
Flu: 549
//
compound: CC1=CC(/C=C/c2cccc(C)c2C)=[N+]2C1=C(c1ccc(NC(=O)CCl)cc1)c1cccn1[B-]2(F)F [BDNCA-349]
Flu: 578

Looking up CC1=CC(/C=C/C2CCCCC2)=[N+]2C1=C(c1ccc(NC(=O)CCl)cc1)c1cccn1[B-]2(F)F [BDNCA-414] , I found its Flu recorded as 547

###

Assay: Spectroscopic measurements (absorption, emission, quantum yield, extinction coefficient)
Type: physicochemical
Conditions: BDNCA library, extinction coefficient; in M-1 cm-1 (unit assumed)
metric: ε

# annotated cases, reported ε shown
input.smiles: COc1ccc2ccccc2c1/C=C/C1=[N+]2C(=C(c3ccc(NC(=O)CCl)cc3)c3cccn3[B-]2(F)F)C(C)=C1
measurement: 33,776
//
input.smiles: COc1cc(Cl)cc(/C=C/C2=[N+]3C(=C(c4ccc(NC(=O)CCl)cc4)c4cccn4[B-]3(F)F)C(C)=C2)c1O
measurement: 60,686

In plain terms, Cc1ccc(/C=C/c2cc(C)c3n2[B-](F)(F)[N+]2=CC=CC2=C3c2ccc(NC(=O)CCl)cc2)cc1 has a documented ε of 64,805

So for CCc1ccccc1/C=C/c1cc(C)c2n1[B-](F)(F)[N+]1=CC=CC1=C2c1ccc(NC(=O)CCl)cc1 , the logged ε turned out to be 54,096

// CCCCCCOc1ccc(/C=C/C2=[N+]3C(=C(c4ccc(NC(=O)CCl)cc4)c4cccn4[B-]3(F)F)C(C)=C2)cc1 : ε value = 82,929

Recorded ε (compound COc1ccc(/C=C/C2=[N+]3C(=C(c4ccc(NC(=O)CCl)cc4)c4cccn4[B-]3(F)F)C(C)=C2)cc1Br ): 86,499

Noted for CC1=CC(/C=C/c2cccc(Oc3ccc(Cl)c(Cl)c3)c2)=[N+]2C1=C(c1ccc(NC(=O)CCl)cc1)c1cccn1[B-]2(F)F : its ε reads 49,703

###

Experiment: Spectroscopic measurements (absorption, emission, quantum yield, extinction coefficient)
Type: physicochemical
Details: BDNCA library, fluorescence emission
Is Flu at least 600? Then fulfilled. If not, not fulfilled.

input.smiles: COc1ccc(Br)cc1/C=C/c1cc(C)c2n1[B-](F)(F)[N+]1=CC=CC1=C2c1ccc(NC(=O)CCl)cc1
assigned.class: not fulfilled
//
input.smiles: CC1=CC(/C=C/c2ccc3ccc4cccc5ccc2c3c45)=[N+]2C1=C(c1ccc(NC(=O)CCl)cc1)c1cccn1[B-]2(F)F
assigned.class: fulfilled

We next turn to a different compound, shown below.
(Q) API: above_or_equal(metric=Flu, cutoff=600) for item COc1cccc(/C=C/C2=[N+]3C(=C(c4ccc(NC(=O)CCl)cc4)c4cccn4[B-]3(F)F)C(C)=C2)c1OC
(A) not fulfilled
